// reported IC50 for each item listed
test.system: Isocitrate dehydrogenase [NADP], mitochondrial (Homo sapiens, UniProt P48735, R140Q)
Sequence (P48735 40-452 R140Q limits assumed): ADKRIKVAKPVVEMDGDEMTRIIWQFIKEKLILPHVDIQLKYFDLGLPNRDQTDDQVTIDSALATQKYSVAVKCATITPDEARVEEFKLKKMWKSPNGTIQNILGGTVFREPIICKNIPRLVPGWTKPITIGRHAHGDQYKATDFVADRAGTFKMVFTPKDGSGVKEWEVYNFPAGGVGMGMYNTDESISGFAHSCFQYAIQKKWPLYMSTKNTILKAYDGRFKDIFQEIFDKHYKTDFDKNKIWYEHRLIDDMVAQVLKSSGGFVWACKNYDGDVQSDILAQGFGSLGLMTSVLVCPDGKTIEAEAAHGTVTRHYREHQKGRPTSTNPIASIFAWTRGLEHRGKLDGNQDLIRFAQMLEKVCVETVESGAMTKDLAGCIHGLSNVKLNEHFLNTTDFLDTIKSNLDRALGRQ
test.description: Inhibition of IDH2 R140Q mutant (unknown origin) using alpha-ketoglutarate as substrate preincubated with compound for 16 hrs followed by substrate addition and measured after 1 hr in presence of NADPH by fluorescence based analysis

Check out these entries, answers already filled in.
molecule: C=C(C)c1nc(NC(C)C)nc(N[C@H](C)C(F)(F)F)n1
IC50: 710 nM

molecule: CC(C)CNc1nc(N[C@H](C)C(F)(F)F)nc(C2=CC(O)CCC2)n1 (mixture of isomers)
IC50: 21 nM

molecule: C[C@@H](Nc1nc(NC2CCCCC2)nc(C2=CC(O)CCC2)n1)C(F)(F)F (mixture of isomers)
IC50: 43 nM

molecule: CCNc1nc(N[C@H](C)C(F)(F)F)nc(C2=CC(O)CCC2)n1 (mixture of isomers)
IC50: 68 nM

molecule: C[C@@H](Nc1nc(NC2CC2)nc(C2=CC(O)CCC2)n1)C(F)(F)F (mixture of isomers)
IC50: 257 nM

Noted for CC(C)Nc1nc(N[C@H](C)C(F)(F)F)nc(C2=CCC(O)CC2)n1 (mixture of isomers) : its IC50 reads > 3000 nM

Summary for this molecule, C[C@@H](Nc1nc(NC2CCC2)nc(C2=CC(O)CCC2)n1)C(F)(F)F (mixture of isomers) : IC50 is 39 nM

Note to self: IC50 recorded for CC(C)Nc1nc(N[C@H](C)C(F)(F)F)nc(C2=CC(O)CCC2)n1 (mixture of isomers) was 41 nM
